target: BDNF/NT-3 growth factors receptor (Homo sapiens); conditions: at 1 µM;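 note: values are the mean percent inhibition of TRKB kinase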
MEASURED_ATTRIBUTE: inhibition (%)
The response must be a number in % with no trailing unit.

Completed entries (count: 6):
> print(dat)
                           structure.smiles  u  assay.value
1  C#Cc1cccc(Nc2ncnc3ccc(OCCCCNCCS(C)(=O)=O)cc23)c1  %         2.28
2  Fc1ccc(-c2ncn(CCCN3CCOCC3)c2-c2ccncc2)cc1  %        -1.43
3    Clc1ccc(CNc2nccc(-c3cnn4ncccc34)n2)cc1  %         1.45
4  NS(=O)(=O)c1ccc(N/N=C2\C(=O)Nc3ccc(C(=O)NCCCn4ccnc4)cc32)cc1  %         43.2
5  COc1ccc2cc(-c3c(-c4ccncc4)nc(-c4ccc(S(C)(=O)=O)cc4C)n3C)ccc2c1  %         3.12
6  COc1cc2ncn(-c3cc(OCc4ccccc4C(F)(F)F)c(C(C)=O)s3)c2cc1OC  %         2.56

Let me know recorded inhibition for `COc1ccc2ncn(-c3cc(O[C@H](C)c4ccccc4Cl)c(C(N)=O)s3)c2c1` , thanks. 9.91

Let me know recorded inhibition for `COc1cc2ncn(-c3cc(OCCc4ccccc4)c(C(N)=O)s3)c2cc1OC` , thanks. 8.57

Let me know recorded inhibition for `O=C(Nc1ccc(Oc2ccc3[nH]c(NC(=O)c4ccccc4)nc3c2)cc1)Nc1cc(C(F)(F)F)ccc1F` , thanks. 35.1

---

target: Serine/threonine-protein kinase 26 (Homo sapiens); conditions: at 1 µM;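 note: mean inhibition of MST4 kinase activity, reported from the GSK PKIS inhibitor-set screening panel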
MEASURED_ATTRIBUTE: inhibition (%)
The response must be a number in % with no trailing unit.

Completed entries (count: 4):
> print(dat)
                                   compound  measured.attribute  u  assay.value
1   O=C1Nc2ccc(I)cc2C1=Cc1cc(Br)c(O)c(Br)c1          inhibition  %         8.78
2  NC(=O)c1cc(-c2ccc(F)cc2)cc(-c2ccncc2)c1N          inhibition  %        -1.28
3     NCc1ccc(-n2c(-c3nonc3N)nc3cnccc32)cc1          inhibition  %        -0.73
4  COc1ccc2cc(-c3c(-c4ccncc4)nc(-c4ccc([S+](C)[O-])cc4C)n3C)ccc2c1 (stereo unspecified)          inhibition  %         3.65

Please look at `CCS(=O)(=O)c1ccc(OC)c(Nc2ncc(-c3cccc(-c4ccccc4F)c3)o2)c1` and tell me its recorded inhibition on Serine/threonine-protein kinase 26 (Homo sapiens). -0.27

Please look at `Clc1ccc(CNc2nccc(-c3cnn4ncccc34)n2)cc1` and tell me its recorded inhibition on Serine/threonine-protein kinase 26 (Homo sapiens). 1.18

Please look at `COc1cc(N2CCN(C(C)C)CC2)ccc1Nc1nc(Nc2ccc(F)cc2C(=O)NC[C@@H](O)CO)c2cc[nH]c2n1` and tell me its recorded inhibition on Serine/threonine-protein kinase 26 (Homo sapiens). -2.64

Please look at `NS(=O)(=O)c1ccc(N/N=C2\C(=O)Nc3ccc(C(=O)NCCCn4ccnc4)cc32)cc1` and tell me its recorded inhibition on Serine/threonine-protein kinase 26 (Homo sapiens). 6.6

Please look at `COc1ccc(C2=C(N3CCc4ccccc43)C(=O)NC2=O)cc1` and tell me its recorded inhibition on Serine/threonine-protein kinase 26 (Homo sapiens). 2.06

---

molecular target: Serine/threonine-protein kinase Chk2 (Homo sapiens); conditions: at 0.1 µM
Description: GSK_PKIS: CHEK2 mean inhibition at 0.1 uM [Nanosyn]
MEASURED_ATTRIBUTE: inhibition (%)
The response must be a number in % with no trailing unit.

> print(dat)
                                   molecule  assay.value
1        CNC(=O)c1cncc(/C=C/c2c(C)cccc2C)c1        -0.74
2  C[C@@H](Oc1cc(-n2cnc3ccc(OC4CCN(C)CC4)cc32)sc1C(N)=O)c1ccccc1Cl         3.23
3  NS(=O)(=O)c1ccc(Nc2cc(-c3ccc(O)c(F)c3)n[nH]2)cc1        -1.68
4  Fc1ccc(-c2ncn(CCCN3CCOCC3)c2-c2ccncc2)cc1        -0.55
5  C[C@@H](Oc1cc(-n2cnc3ccc(OCC4CCN(C)CC4)cc32)sc1C(N)=O)c1ccccc1Cl         2.55

Shifting focus to the molecule that follows.
Let me know recorded inhibition for `COc1cccc(/C=N/Nc2ncnc3c2cnn3-c2cccc(OC)c2)c1` , thanks. 3.83

---

Collected inhibition values appear next to each entry.
target: Non-receptor tyrosine-protein kinase TYK2 (Homo sapiens); details: at 0.1 µM;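 note: each value is a mean of the inhibition readings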
The response must be a number in % with no trailing unit.

Completed entries (count: 5):
> print(dat)
                           structure.smiles  measured.attribute  u  assay.value
1       Fc1ccc(-c2nc3n(c2-c2ccncc2)CCS3)cc1          inhibition  %        -8.34
2  Fc1ccc(-c2ncn(CCCN3CCOCC3)c2-c2ccncc2)cc1          inhibition  %          1.6
3  COc1cc2ncn(-c3cc(OCc4ccccc4C(F)(F)F)c(C(C)=O)s3)c2cc1OC          inhibition  %        -1.78
4        CNC(=O)c1cncc(/C=C/c2c(C)cccc2C)c1          inhibition  %        -0.15
5  COc1cccc(-n2cnc3c(N/N=C/c4ccncc4)ncnc32)c1          inhibition  %         3.07

Let me know recorded inhibition for `C[C@@H](Oc1cc(-n2cnc3ccc(OCC4CCN(C)CC4)cc32)sc1C(N)=O)c1ccccc1Cl` , thanks. -2.69

---

Collected inhibition values appear next to each entry.
target: Serine/threonine-protein kinase MRCK beta (Homo sapiens); conditions: at 1 µM;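 note: averaged inhibition values against MRCK beta, part of the GSK PKIS profiling dataset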
The response must be a number in % with no trailing unit.

Completed entries (count: 6):
> print(dat)
                                   compound  measured.attribute  u  assay.value
1  COc1cc(N2CCN(C(C)C)CC2)ccc1Nc1nc(Nc2ccc(F)cc2C(=O)NC[C@@H](O)CO)c2cc[nH]c2n1          inhibition  %        -1.04
2  Nc1nccc(-c2c(-c3ccc(F)cc3)ncn2C2CCC(O)CC2)n1 (stereo not given)          inhibition  %         0.56
3  CCC(=O)Nc1ccc(C)c(-c2ccc(C(=O)NCC3CC3)cc2)c1          inhibition  %         0.23
4  N#Cc1ccc(Oc2nccc(-c3c(-c4ccc(F)cc4)ncn3C3CCNCC3)n2)cc1          inhibition  %         0.02
5  CN1CCN(CCCNc2nc3ccc(Oc4ccc(NC(=O)Nc5cc(C(F)(F)F)ccc5F)cc4)cc3[nH]2)CC1          inhibition  %         2.84
6  Fc1ccc(-c2ncn(CCCN3CCOCC3)c2-c2ccncc2)cc1          inhibition  %         2.08

Let me know recorded inhibition for `O=C1Nc2ccc(I)cc2C1=Cc1cc(Br)c(O)c(Br)c1` , thanks. 1.27

Let me know recorded inhibition for `NS(=O)(=O)c1ccc(N/N=C2\C(=O)Nc3ccc(C(=O)NCCCn4ccnc4)cc32)cc1` , thanks. 5.24

Let me know recorded inhibition for `c1ccc(-c2n[nH]cc2-c2ccnc(-c3ccc(OCCN4CCOCC4)cc3)c2)nc1` , thanks. 5.68

Let me know recorded inhibition for `CS(=O)(=O)CCNCc1cc(-c2cc3c(Nc4ccc(OCc5cccc(F)c5)c(Cl)c4)ncnc3s2)cs1` , thanks. 2.8

Let me know recorded inhibition for `Clc1ccc(CNc2nccc(-c3cnn4ncccc34)n2)cc1` , thanks. 0.3

Let me know recorded inhibition for `C/C(Nc1ccc(S(N)(=O)=O)cc1)=C1/C(=O)Nc2ccccc21` , thanks. 3.4

Let me know recorded inhibition for `CCc1ccc(Oc2nccc(-c3c(-c4ccc(F)cc4)ncn3C3CCNCC3)n2)cc1` , thanks. 4.65

Let me know recorded inhibition for `FC(F)(F)c1cccc(Nc2nccc(-c3cnn4nc(-c5ccccc5)ccc34)n2)c1` , thanks. 0.03

Let me know recorded inhibition for `O=C(Nc1n[nH]c2nc(-c3ccco3)ccc12)C1CC1` , thanks. 3.54

---

Collected inhibition values appear next to each entry.
molecular target: MAP kinase-activated protein kinase 2 (Homo sapiens) (UniProt P49137); details: at 1 µM;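 note: values are mean inhibition from the GSK PKIS screen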
Sequence (P49137 whole entry, looked up): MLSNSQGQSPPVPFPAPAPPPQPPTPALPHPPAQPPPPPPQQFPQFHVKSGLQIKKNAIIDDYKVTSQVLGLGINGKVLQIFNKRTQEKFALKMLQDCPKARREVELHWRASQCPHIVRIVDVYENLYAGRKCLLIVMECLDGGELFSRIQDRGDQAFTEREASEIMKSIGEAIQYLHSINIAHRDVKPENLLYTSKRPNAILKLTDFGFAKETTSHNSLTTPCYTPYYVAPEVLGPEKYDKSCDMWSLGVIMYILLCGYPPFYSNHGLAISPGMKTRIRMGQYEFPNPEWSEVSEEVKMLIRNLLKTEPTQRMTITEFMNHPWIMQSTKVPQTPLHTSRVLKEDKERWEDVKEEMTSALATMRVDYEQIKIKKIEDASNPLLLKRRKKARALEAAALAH
The response must be a number in % with no trailing unit.

Completed entries (count: 2):
> print(dat)
                           structure.smiles  u  assay.value
1  O=C(Nc1ccc(Oc2ccc3[nH]c(NC(=O)c4ccccc4)nc3c2)cc1)Nc1cc(C(F)(F)F)ccc1F  %         1.81
2        CNC(=O)c1cncc(/C=C/c2c(C)cccc2C)c1  %        -0.68

Let me know recorded inhibition for `O=C(Nc1n[nH]c2cc(-c3cc(F)ccc3F)ccc12)C1CC1` , thanks. 1.03

Let me know recorded inhibition for `O=C1Nc2ccc(I)cc2C1=Cc1cc(Br)c(O)c(Br)c1` , thanks. 4.08

Let me know recorded inhibition for `O=C(Nc1n[nH]c2nc(-c3ccc(O)cc3)c(Br)cc12)C1CC1` , thanks. 2.69
